biological target: SERT (Homo sapiens, UniProt P31645)
Sequence (P31645 whole entry): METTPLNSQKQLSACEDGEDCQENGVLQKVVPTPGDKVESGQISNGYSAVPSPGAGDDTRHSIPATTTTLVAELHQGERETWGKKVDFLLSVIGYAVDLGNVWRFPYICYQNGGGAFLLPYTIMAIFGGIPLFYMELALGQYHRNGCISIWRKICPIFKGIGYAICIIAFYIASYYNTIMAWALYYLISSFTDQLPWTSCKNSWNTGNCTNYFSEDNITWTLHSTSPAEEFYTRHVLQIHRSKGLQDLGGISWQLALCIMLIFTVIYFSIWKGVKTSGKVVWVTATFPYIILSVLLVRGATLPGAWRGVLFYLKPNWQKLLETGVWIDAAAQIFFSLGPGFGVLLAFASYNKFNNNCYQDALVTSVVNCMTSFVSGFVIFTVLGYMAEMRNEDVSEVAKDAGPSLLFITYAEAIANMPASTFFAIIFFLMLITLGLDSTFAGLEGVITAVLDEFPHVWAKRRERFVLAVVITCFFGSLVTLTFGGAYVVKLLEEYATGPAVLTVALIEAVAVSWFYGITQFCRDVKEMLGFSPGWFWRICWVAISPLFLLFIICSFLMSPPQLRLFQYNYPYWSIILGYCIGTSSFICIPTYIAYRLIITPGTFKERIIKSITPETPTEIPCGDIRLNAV
measured_parameter: pKi
Entry type: numeric. Quantity: pKi, the -log10 of concentration in molar units.

Report value: pKi, system: SERT (Homo sapiens, UniProt P31645), compound: O=c1ccccn1CC1(O)CCN(Cc2ccccc2)CC1
8.27

###

The entries below come with measured inhibition at 10 µM values attached.
target: 5-HT transport protein (SERT) (Rattus norvegicus, UniProt P31652); construct: Preparation of Membrane Proteins in Rat Hippocampi; from tissue; host or cells: Wistar rat hippocampus; assay: Screening: competitive binding test to SERT using [3H]-citalopram; conditions: compound 10^-5 mol/L; [3H]-citalopram 1 nM; read-out: Inhibition percent (I %), competitive binding to 5-HT transport protein (SERT)
Sequence (P31652 whole entry): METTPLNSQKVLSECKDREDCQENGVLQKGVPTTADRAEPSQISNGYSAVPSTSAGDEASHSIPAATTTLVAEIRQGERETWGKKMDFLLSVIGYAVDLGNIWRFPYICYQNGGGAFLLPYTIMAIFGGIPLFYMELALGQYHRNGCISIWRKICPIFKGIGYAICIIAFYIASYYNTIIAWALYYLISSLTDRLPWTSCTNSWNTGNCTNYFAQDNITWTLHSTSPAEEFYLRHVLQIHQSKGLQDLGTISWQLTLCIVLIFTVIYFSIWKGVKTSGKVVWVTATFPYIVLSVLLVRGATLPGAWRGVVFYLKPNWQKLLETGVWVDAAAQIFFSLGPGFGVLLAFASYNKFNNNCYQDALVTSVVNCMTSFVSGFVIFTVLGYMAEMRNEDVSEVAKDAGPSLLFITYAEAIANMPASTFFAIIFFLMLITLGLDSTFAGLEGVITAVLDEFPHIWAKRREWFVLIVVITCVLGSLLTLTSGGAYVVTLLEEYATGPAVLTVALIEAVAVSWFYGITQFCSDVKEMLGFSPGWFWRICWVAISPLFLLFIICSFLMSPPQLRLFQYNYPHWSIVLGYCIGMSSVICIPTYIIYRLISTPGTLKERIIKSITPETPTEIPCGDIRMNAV
Kindly provide the numeric value in % only, without the unit symbol.

1. O=c1ccccn1CC1(O)CCN(Cc2ccccc2F)CC1    100
2. O=c1ccc(Br)cn1CC1(O)CCN(Cc2ccccc2)CC1    100
3. O=c1ccc(Br)cn1CC1(O)CCN(Cc2ccccc2F)CC1    87

Complete the entry with inhibition at 10 µM for O=c1ccccn1CC1(O)CCN(Cc2ccccc2)CC1
100

###

target: 5-HT1A receptor (Rattus norvegicus); construct: the content of 5-HT1A receptor extracted from rat hippocampi was 5.5 mg/ml; from tissue; host or cells: Wistar rat hippocampus, membrane preparation; assay: Screening: competitive binding test to 5-HT1A receptor using [3H]-8-OH-DPAT, rat hippocampi membrane protein; conditions: compound 10^-5 mol/L, [3H]-8-OH-DPAT 1.28 nM
Sequence (P19327 whole entry): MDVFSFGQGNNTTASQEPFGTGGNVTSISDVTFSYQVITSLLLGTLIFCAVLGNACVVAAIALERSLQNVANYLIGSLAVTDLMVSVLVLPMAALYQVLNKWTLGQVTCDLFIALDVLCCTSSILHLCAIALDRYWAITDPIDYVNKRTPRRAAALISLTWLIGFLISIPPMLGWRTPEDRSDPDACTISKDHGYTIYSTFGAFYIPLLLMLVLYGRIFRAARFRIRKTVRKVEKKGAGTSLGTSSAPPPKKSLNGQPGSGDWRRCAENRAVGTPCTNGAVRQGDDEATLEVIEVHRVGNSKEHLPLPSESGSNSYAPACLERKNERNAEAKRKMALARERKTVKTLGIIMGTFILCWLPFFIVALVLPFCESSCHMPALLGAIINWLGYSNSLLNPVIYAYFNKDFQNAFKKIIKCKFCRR
The entries below come with measured Inhibition percent (I %), competitive binding to 5-HT1A receptor values attached.
Kindly provide the numeric value in % only, without the unit symbol.

Solved cases below.
1) Cc1ccn(CC2(O)CCN(Cc3ccc(F)cc3)CC2)c(=O)c1 [Compound 11]    57
2) Cc1ccn(CC2(O)CCN(Cc3ccccc3)CC2)c(=O)c1 [Compound 9]    100

The record that follows has no Inhibition percent (I %), competitive binding to 5-HT1A receptor shown yet.
Complete the entry with Inhibition percent (I %), competitive binding to 5-HT1A receptor for O=c1ccc(Br)cn1CC1(O)CCN(Cc2ccc(F)cc2)CC1 [Compound 7]
59
